# Assay summary: AUClast in cynomolgus monkey at 1 mg/kg, iv or 5 mg/kg, po by LC-MS/MS method
# Format: ADME, organism-based, Macaca fascicularis
# Conditions used: in vivo
Property measured: AUC(0-t) (µM·h)

A: CC(=O)N1CCc2c(c(N3CCCc4cc(-c5cnn(C)c5)c(C(F)F)cc43)nn2C2CCOCC2)C1
B: CNC(=O)N1CCc2c(c(N3CCCc4cc(-c5cnn(C)c5)c(C(F)F)cc43)nn2C2CCOCC2)C1
Hey, which is lower on measured AUC(0-t), A or B ? Indicate which entry you chose by stating its label.
B
(B: 2.5 µM·h, A: 8.5 µM·h)

###

# Target desc: Chromatin remodeling regulator CECR2 (Homo sapiens, UniProt Q9BXF3)
# Sequence (Q9BXF3 whole entry): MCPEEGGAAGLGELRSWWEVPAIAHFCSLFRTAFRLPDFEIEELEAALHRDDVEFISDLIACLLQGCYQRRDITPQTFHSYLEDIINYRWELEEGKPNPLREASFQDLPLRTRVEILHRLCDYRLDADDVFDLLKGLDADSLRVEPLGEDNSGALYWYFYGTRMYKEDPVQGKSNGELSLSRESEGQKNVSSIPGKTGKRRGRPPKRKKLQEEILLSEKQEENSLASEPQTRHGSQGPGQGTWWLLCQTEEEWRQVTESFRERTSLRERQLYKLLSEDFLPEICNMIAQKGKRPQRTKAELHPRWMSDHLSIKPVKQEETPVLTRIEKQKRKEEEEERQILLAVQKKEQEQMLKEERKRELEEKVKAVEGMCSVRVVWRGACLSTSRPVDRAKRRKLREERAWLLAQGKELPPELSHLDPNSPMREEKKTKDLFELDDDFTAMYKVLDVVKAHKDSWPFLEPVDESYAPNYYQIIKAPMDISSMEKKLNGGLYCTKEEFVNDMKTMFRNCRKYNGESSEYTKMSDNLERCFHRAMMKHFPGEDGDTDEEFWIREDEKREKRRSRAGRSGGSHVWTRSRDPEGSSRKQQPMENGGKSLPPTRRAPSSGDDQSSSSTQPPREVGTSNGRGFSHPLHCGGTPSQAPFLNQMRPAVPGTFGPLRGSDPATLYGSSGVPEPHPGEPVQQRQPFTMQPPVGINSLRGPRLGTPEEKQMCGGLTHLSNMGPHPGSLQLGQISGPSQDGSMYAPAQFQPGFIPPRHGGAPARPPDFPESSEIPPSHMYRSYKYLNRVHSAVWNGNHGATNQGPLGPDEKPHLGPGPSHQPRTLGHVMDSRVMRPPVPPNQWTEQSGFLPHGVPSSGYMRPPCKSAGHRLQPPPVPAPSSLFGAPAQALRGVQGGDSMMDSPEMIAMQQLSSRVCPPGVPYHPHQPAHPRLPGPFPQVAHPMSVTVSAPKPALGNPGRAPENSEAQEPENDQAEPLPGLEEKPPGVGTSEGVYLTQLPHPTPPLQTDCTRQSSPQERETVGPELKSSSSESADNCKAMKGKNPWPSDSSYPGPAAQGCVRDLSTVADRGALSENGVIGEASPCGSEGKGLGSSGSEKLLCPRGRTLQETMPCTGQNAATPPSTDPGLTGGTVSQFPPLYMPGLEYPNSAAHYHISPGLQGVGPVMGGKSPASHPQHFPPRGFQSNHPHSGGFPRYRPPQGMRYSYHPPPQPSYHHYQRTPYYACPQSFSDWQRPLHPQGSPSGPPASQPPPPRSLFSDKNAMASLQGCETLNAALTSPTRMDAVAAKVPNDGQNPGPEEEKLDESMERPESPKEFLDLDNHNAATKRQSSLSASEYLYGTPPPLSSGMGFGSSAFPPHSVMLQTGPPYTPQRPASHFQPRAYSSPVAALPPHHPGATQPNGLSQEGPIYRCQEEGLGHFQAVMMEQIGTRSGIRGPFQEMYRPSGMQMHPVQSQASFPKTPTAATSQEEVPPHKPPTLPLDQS
# Assay summary: Displacement of biotinylated histone H3K14 peptide ligand from human recombinant His-tagged CECR2 measured after 10 mins by TR-FRET assay
Property measured: IC50 (µM)
Please state the figure in µM; there is no need to write the unit.

Return reported IC50; argument: CC(=O)N1CCc2c(c(N3CCCc4cc(-c5cnn(C)c5)c(C(F)F)cc43)nn2C2CCOCC2)C1
14

###

# Target desc: Cytochrome P450 2C9 (Homo sapiens)
# Sequence (P11712 whole entry): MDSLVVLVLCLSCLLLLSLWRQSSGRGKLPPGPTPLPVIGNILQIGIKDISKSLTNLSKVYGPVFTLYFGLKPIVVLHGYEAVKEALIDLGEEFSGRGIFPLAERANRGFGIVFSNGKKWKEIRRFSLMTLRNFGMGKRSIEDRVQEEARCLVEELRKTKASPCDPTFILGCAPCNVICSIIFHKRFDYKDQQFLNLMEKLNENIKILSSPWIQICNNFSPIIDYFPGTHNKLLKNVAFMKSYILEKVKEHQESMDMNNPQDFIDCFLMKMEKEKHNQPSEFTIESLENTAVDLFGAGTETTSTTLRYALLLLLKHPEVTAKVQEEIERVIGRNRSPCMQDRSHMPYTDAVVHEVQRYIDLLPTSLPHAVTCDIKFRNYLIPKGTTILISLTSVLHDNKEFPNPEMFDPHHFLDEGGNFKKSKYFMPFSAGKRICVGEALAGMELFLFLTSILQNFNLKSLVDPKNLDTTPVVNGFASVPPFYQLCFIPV
pIC50: −log10 of the molar value.
Property measured: pIC50

Provide value of pIC50 for this record tested with Cytochrome P450 2C9 (Homo sapiens): CNC(=O)N1CCc2c(c(N3CCCc4cc(-c5cnn(C)c5)c(C(F)F)cc43)nn2C2CCOCC2)C1
< 5.00

###

# Assay summary: Clearance in Sprague-Dawley rat at 1 mg/kg, iv or 5 mg/kg, po by LC-MS/MS method
# Format: ADME, organism-based
# Conditions used: in vivo
Property measured: clearance (mL/min/kg)

A: CNC(=O)N1CCc2c(c(N3CCCc4cc(-c5cnn(C)c5)c(C(F)F)cc43)nn2C2CCOCC2)C1
B: CC(=O)N1CCc2c(c(N3CCCc4cc(-c5cnn(C)c5)c(C(F)F)cc43)nn2C2CCOCC2)C1
Task for the reader: decide whether A or B has the larger clearance. Indicate which entry you chose by stating its label.
B
(B: 16 mL/min/kg, A: 3.8 mL/min/kg)

###

IC50 values, listed per item
# Target desc: Bromodomain-containing protein 8 (Homo sapiens)
# Sequence (Q9H0E9 whole entry): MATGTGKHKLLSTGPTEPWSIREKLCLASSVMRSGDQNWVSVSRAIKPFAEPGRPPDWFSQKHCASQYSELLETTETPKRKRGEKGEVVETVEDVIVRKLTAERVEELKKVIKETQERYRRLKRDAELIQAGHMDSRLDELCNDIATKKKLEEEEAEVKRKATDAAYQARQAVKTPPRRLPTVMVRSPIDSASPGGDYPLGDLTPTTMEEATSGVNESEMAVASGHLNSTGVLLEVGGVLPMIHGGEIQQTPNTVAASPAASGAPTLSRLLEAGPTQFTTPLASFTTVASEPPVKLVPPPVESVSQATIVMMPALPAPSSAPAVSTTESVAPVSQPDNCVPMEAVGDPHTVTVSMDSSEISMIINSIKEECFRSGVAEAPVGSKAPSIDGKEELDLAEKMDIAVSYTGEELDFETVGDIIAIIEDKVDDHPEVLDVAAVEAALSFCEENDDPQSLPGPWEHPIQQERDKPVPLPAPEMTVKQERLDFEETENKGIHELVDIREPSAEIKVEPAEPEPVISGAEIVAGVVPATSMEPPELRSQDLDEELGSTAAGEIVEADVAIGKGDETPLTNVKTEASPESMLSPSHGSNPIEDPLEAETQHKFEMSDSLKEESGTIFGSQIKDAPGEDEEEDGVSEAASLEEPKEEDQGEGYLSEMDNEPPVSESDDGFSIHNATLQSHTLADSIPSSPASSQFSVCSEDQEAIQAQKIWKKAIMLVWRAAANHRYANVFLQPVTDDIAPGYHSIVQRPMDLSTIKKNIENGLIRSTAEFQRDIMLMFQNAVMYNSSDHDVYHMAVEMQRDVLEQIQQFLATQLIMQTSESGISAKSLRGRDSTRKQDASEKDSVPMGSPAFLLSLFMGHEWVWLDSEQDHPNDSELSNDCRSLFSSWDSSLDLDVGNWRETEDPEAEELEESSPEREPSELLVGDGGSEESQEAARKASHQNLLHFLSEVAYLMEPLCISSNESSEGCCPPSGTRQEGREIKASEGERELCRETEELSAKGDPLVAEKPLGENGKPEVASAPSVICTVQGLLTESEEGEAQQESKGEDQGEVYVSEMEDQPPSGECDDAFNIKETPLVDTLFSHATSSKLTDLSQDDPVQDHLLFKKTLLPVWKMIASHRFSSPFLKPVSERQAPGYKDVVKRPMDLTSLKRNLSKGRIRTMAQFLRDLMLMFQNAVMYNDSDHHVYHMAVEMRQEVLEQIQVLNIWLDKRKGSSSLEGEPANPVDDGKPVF
# Assay summary: Displacement of biotinylated histone H3K14 peptide ligand from recombinant His-tagged BRD8 bromodomain-1 (unknown origin) measured after 10 mins by TR-FRET assay

# Smiles structure, Property measured, Readout value
rows = [
    ("CC(=O)N1CCc2c(c(N3CCCc4cc(-c5cnn(C)c5)c(C(F)F)cc43)nn2C2CCOCC2)C1", "IC50", "> 20 µM"),
]

Provide value of IC50 for this record tested with Bromodomain-containing protein 8 (Homo sapiens): CNC(=O)N1CCc2c(c(N3CCCc4cc(-c5cnn(C)c5)c(C(F)F)cc43)nn2C2CCOCC2)C1
> 20 µM

###

# Assay summary: Volume of distribution at steady state in cynomolgus monkey at 1 mg/kg, iv or 5 mg/kg, po by LC-MS/MS method
# Format: ADME, organism-based, Macaca fascicularis
# Conditions used: in vivo, read-out: Vdss
Property measured: Vd (L/kg)

# Smiles structure, Vd (L/kg)
rows = [
    ("CNC(=O)N1CCc2c(c(N3CCCc4cc(-c5cnn(C)c5)c(C(F)F)cc43)nn2C2CCOCC2)C1", 1),
    ("CC(=O)N1CCc2c(c(N3CCCc4cc(-c5cnn(C)c5)c(C(F)F)cc43)nn2C2CCOCC2)C1", 1.4),
]

###

# Assay summary: Cmax in Sprague-Dawley rat at 1 mg/kg, iv or 5 mg/kg, po by LC-MS/MS method
# Format: ADME, organism-based
# Conditions used: in vivo
Property measured: Cmax (µM)

# Smiles structure, Readout unit, Readout value
records = [
    ("CC(=O)N1CCc2c(c(N3CCCc4cc(-c5cnn(C)c5)c(C(F)F)cc43)nn2C2CCOCC2)C1", "µM", 3.2),
    ("CNC(=O)N1CCc2c(c(N3CCCc4cc(-c5cnn(C)c5)c(C(F)F)cc43)nn2C2CCOCC2)C1", "µM", 4.1),
]

###

# Assay summary: Half life in cynomolgus monkey at 1 mg/kg, iv or 5 mg/kg, po by LC-MS/MS method
# Assay type: ADME, organism-based, Macaca fascicularis
# Conditions used: in vivo
Property measured: half-life (h)

P: CNC(=O)N1CCc2c(c(N3CCCc4cc(-c5cnn(C)c5)c(C(F)F)cc43)nn2C2CCOCC2)C1
Q: CC(=O)N1CCc2c(c(N3CCCc4cc(-c5cnn(C)c5)c(C(F)F)cc43)nn2C2CCOCC2)C1
Hey, which is lower on measured half-life, P or Q ? Indicate which entry you chose by stating its label.
P
(P: 0.72 h, Q: 2.8 h)

###

# Assay summary: AUClast in CD-1 mouse at 1 mg/kg, iv or 5 mg/kg, po by LC-MS/MS method
# Type: ADME, organism-based
# Conditions used: in vivo
Property measured: AUC(0-t) (µM·h)

A: CNC(=O)N1CCc2c(c(N3CCCc4cc(-c5cnn(C)c5)c(C(F)F)cc43)nn2C2CCOCC2)C1
B: CC(=O)N1CCc2c(c(N3CCCc4cc(-c5cnn(C)c5)c(C(F)F)cc43)nn2C2CCOCC2)C1
Task for the reader: decide whether A or B has the larger AUC(0-t). Indicate which entry you chose by stating its label.
B
(B: 13.7 µM·h, A: 6.5 µM·h)

###

# Assay summary: Apparent permeability from apical side to basolateral side in MDCK cells at 10 uM measured after 180 mins by LC-MS/MS analysis
# Assay type: ADME, cell-based, Canis lupus familiaris
# Conditions used: dog
Property measured: Papp A→B at 3 h, 10 µM (×10⁻⁶ cm/s)

# Smiles structure, Property measured, Readout value
rows = [
    ("CNC(=O)N1CCc2c(c(N3CCCc4cc(-c5cnn(C)c5)c(C(F)F)cc43)nn2C2CCOCC2)C1", "Papp A→B at 3 h, 10 µM", 19),
    ("CC(=O)N1CCc2c(c(N3CCCc4cc(-c5cnn(C)c5)c(C(F)F)cc43)nn2C2CCOCC2)C1", "Papp A→B at 3 h, 10 µM", 15),
]

###

IC50 values, listed per item
# Target desc: Bromodomain-containing protein 4 (Homo sapiens, UniProt O60885)
# Assay summary: Displacement of biotinylated histone H3K14 peptide ligand from human recombinant His-tagged BRD4 bromodomain-1 measured after 10 mins by TR-FRET assay

# Smiles structure, Readout value
rows = [
    ("CCNC(=O)N1CCc2c(c(N3CCCc4cc(-c5cnn(C)c5)c(C(F)F)cc43)nn2C2CCOCC2)C1", "> 20 µM"),
    ("CC(=O)N1CCc2c(c(N3CCCc4cc(-c5cnn(C)c5)c(C(F)(F)F)cc43)nn2[C@H]2CCOC2)C1", "4.2 to 4.4 µM"),
]

Return reported IC50; argument: CNC(=O)N1C[C@@H](C)Oc2cc(C)ccc21
> 100 µM
